B1: LINE1-full (parent)
chain: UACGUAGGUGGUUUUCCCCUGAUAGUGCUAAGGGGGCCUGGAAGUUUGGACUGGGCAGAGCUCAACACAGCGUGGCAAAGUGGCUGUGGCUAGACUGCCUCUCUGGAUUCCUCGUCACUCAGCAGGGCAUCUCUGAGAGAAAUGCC

variants of: B1; test: self-cleavage, relative activity (ratio to wild type); higher = more cleavage; in vitro, sequencing; the parent is a self-cleaving ribozyme

{"VARIANT_DESCRIPTOR": "U73C G88U", "self-cleavage": 0.13}
{"VARIANT_DESCRIPTOR": "U15G G114A", "self-cleavage": 0.87}
{"VARIANT_DESCRIPTOR": "G49U C98A", "self-cleavage": 0.04}
